Reference source: ChEMBL document CHEMBL1135690

System: Mus musculus
assay.method.text: Anxiolytic activity in mice using light-dark box and % time spent in light was reported at 100 mg/kg peroral dose
Assay type: functional
experimental.setup: route oral
experimental.readout: Activity (%)
Note: unit % is implicit; provide only the numeric part.

Ask | What does the data say about its Activity? Entry: O=C(OCc1cccs1)c1cnn2c1n[n+]([O-])c1ccc(Cl)cc12
Reply | 157.1

Ask | What does the data say about its Activity? Entry: O=C(OCc1ccoc1)c1cnn2c1n[n+]([O-])c1ccc(Cl)cc12
Reply | 127.18

Ask | What does the data say about its Activity? Entry: O=C(OCc1ccco1)c1cnn2c1n[n+]([O-])c1ccc(Cl)cc12
Reply | 96.16

Ask | What does the data say about its Activity? Entry: CCOC(=O)c1ncn2c1CN(C)C(=O)c1cc(F)ccc1-2.O=C(OCc1cccs1)c1cnn2c1n[n+]([O-])c1ccc(Cl)cc12
Reply | 124.08

Ask | What does the data say about its Activity? Entry: CCOC(=O)c1ncn2c1CN(C)C(=O)c1cc(F)ccc1-2.CN1C(=O)CN=C(c2ccccc2)c2cc(Cl)ccc21
Reply | 107

* * *

System: Mus musculus
assay.method.text: Anxiolytic activity in mice using light-dark box and no. of transfers between compartments were reported at 30 mg/kg peroral dose
Assay type: functional
experimental.setup: route oral
experimental.readout: No. of transfers
Please give the numeric answer without any surrounding text.

Ask | What does the data say about its No. of transfers? Entry: CCOC(=O)c1ncn2c1CN(C)C(=O)c1cc(F)ccc1-2.CN1C(=O)CN=C(c2ccccc2)c2cc(Cl)ccc21
Reply | 23

Ask | What does the data say about its No. of transfers? Entry: O=C(OCc1ccco1)c1cnn2c1n[n+]([O-])c1ccc(Cl)cc12
Reply | 18.6

Ask | What does the data say about its No. of transfers? Entry: O=C(OCc1ccoc1)c1cnn2c1n[n+]([O-])c1ccc(Cl)cc12
Reply | 20.4

Ask | What does the data say about its No. of transfers? Entry: O=C(OCc1cccs1)c1cnn2c1n[n+]([O-])c1ccc(Cl)cc12
Reply | 20.5

* * *

Assign Ki to each entry below.
State the value with its unit after it.

Ask | Which measured Ki belongs to O=C(OCc1ccsc1)c1cnn2c1n[n+]([O-])c1ccc(Cl)cc12 , tested on GABA-A receptor; anion channel?
Reply | 13.3 nM

Ask | Which measured Ki belongs to O=C(OCc1ccncc1)c1cnn2c1n[n+]([O-])c1ccc(Cl)cc12 , tested on GABA-A receptor; anion channel?
Reply | 44 nM

Ask | Which measured Ki belongs to CC(C)OC(=O)c1cnn2c1n[n+]([O-])c1ccc(Cl)cc12 , tested on GABA-A receptor; anion channel?
Reply | 272 nM

* * *

Test system: Mus musculus
assay.method.text: Motor coordination of mouse as number of falls in 30 sec was reported after 30 mg/kg peroral dose using rotarod test
Type: functional
experimental.setup: route oral
experimental.readout: No. of falls
Please give the numeric answer without any surrounding text.

Ask | What does the data say about its No. of falls? Entry: O=C(OCc1ccsc1)c1cnn2c1n[n+]([O-])c1ccc(Cl)cc12
Reply | 0.27

Ask | What does the data say about its No. of falls? Entry: O=C(OCc1ccoc1)c1cnn2c1n[n+]([O-])c1ccc(Cl)cc12
Reply | 0.1

Ask | What does the data say about its No. of falls? Entry: O=C(OCc1cccs1)c1cnn2c1n[n+]([O-])c1ccc(Cl)cc12
Reply | 0.1

Ask | What does the data say about its No. of falls? Entry: O=C(OCc1ccco1)c1cnn2c1n[n+]([O-])c1ccc(Cl)cc12
Reply | 0.08

* * *

Lab note: pKi readings collected with GABA-A receptor; anion channel for the following compounds.
Value format note: pKi is -log10 of concentration (mol/L); just state the number.

Ask | What does the data say about its pKi? Entry: O=C(OCC1CCOC1)c1cnn2c1n[n+]([O-])c1ccc(Cl)cc12 (stereo not given)
Reply | 6.17

Ask | What does the data say about its pKi? Entry: O=C(OCc1cccs1)c1cnn2c1nnc1ccc(Cl)cc12
Reply | 8.20

Ask | What does the data say about its pKi? Entry: O=C(OCc1ccoc1)c1cnn2c1n[n+]([O-])c1ccc(Cl)cc12
Reply | 7.94

Ask | What does the data say about its pKi? Entry: O=C(OCc1ccco1)c1cnn2c1n[n+]([O-])c1ccc(Cl)cc12
Reply | 7.61

Ask | What does the data say about its pKi? Entry: O=C(OCc1cccs1)c1cnn2c1n[n+]([O-])c1ccc(Cl)cc12
Reply | 8.17

Ask | What does the data say about its pKi? Entry: COc1ccccc1COC(=O)c1cnn2c1nnc1ccc(Cl)cc12
Reply | 8.77

Ask | What does the data say about its pKi? Entry: COc1ccccc1COC(=O)C1C=NN2c3cc(Cl)ccc3[N+]([O-])=NC12 (stereo not given)
Reply | 9.00

Ask | What does the data say about its pKi? Entry: CC(OC(=O)c1cnn2c1n[n+]([O-])c1ccc(Cl)cc12)c1ccccc1 (stereo not given)
Reply | 6.86

Ask | What does the data say about its pKi? Entry: O=C(CC1C=NN2c3cc(Cl)ccc3[N+]([O-])=NC12)Oc1ccccc1Cl (stereo not given)
Reply | 6.31

Ask | What does the data say about its pKi? Entry: COc1ccccc1OC(=O)CC1C=NN2c3cc(Cl)ccc3[N+]([O-])=NC12 (stereo not given)
Reply | 6.77

* * *

assay.method.text: Anticonvulsant activity electroshock induced convulsions and % lethality obtained at dose of 30 mg/kg
Assay type: organism-based
Design: dose 30 mg/kg
experimental.setup: mouse, in vivo, read-out: Lethality
experimental.readout: mortality (%)
Note: unit % is implicit; provide only the numeric part.

Ask | What does the data say about its mortality? Entry: O=C(OCc1cccs1)c1cnn2c1n[n+]([O-])c1ccc(Cl)cc12
Reply | 40

* * *

target.or.system: GABA-A receptor; anion channel (Homo sapiens) (UniProt P14867+P47870+P18507+P28472+P48169+Q99928+Q9UN88+P34903+O00591+O14764+Q8N1C3+P18505+P78334+P47869+P31644+Q16445)
assay.method.text: Percent inhibition [3H]Ro-151788 binding to Benzodiazepine receptor from bovine brain membrane at 10 uM
experimental.setup: Bos taurus, target entry is the homologue from another species
Label class 0 if inhibition falls below 90%; label class 1 in every other case.

Ask | Please check the record CCOC(=O)Cc1cnn2c1n[n+]([O-])c1ccc(Cl)cc12 and state if its inhibition is at or above 90%.
Reply | class 0

Ask | Please check the record O=C(Cc1cnn2c1n[n+]([O-])c1ccc(Cl)cc12)OCc1ccsc1 and state if its inhibition is at or above 90%.
Reply | class 0

Ask | Please check the record O=C(OCc1ccsc1)c1cnn2c1n[n+]([O-])c1ccc(Cl)cc12 and state if its inhibition is at or above 90%.
Reply | class 1

Ask | Please check the record O=C(OCc1ccco1)c1cnn2c1n[n+]([O-])c1ccc(Cl)cc12 and state if its inhibition is at or above 90%.
Reply | class 1

Ask | Please check the record CC(OC(=O)c1cnn2c1n[n+]([O-])c1ccc(Cl)cc12)c1ccccc1 (stereo not given) and state if its inhibition is at or above 90%.
Reply | class 1

Ask | Please check the record O=C(OCC1CCOC1)c1cnn2c1n[n+]([O-])c1ccc(Cl)cc12 (stereo not given) and state if its inhibition is at or above 90%.
Reply | class 0

Ask | Please check the record COc1ccccc1COC(=O)c1cnn2c1nnc1ccc(Cl)cc12 and state if its inhibition is at or above 90%.
Reply | class 1

Ask | Please check the record O=C(Cc1cnn2c1n[n+]([O-])c1ccc(Cl)cc12)OCc1ccccc1 and state if its inhibition is at or above 90%.
Reply | class 0

Ask | Please check the record O=C(OCc1cccs1)c1cnn2c1n[n+]([O-])c1ccc(Cl)cc12 and state if its inhibition is at or above 90%.
Reply | class 1

* * *

target.or.system: GABA A receptor alpha-3/beta-2/gamma-2 (Rattus norvegicus, UniProt P18508+P20236+P63138)
Sequence (P18508 whole entry): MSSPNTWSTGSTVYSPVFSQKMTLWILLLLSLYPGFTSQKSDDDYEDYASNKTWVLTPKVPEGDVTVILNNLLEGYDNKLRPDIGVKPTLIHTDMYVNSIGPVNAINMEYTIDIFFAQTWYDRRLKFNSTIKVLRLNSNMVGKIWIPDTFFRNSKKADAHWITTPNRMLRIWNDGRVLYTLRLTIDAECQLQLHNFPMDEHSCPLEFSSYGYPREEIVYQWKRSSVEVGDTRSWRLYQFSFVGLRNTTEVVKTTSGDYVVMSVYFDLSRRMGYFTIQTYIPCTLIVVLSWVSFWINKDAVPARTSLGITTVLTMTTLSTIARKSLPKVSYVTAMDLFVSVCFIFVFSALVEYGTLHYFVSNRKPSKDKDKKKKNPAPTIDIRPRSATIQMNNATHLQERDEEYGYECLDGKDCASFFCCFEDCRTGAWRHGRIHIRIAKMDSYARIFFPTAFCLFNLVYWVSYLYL
Sequence (P20236 whole entry): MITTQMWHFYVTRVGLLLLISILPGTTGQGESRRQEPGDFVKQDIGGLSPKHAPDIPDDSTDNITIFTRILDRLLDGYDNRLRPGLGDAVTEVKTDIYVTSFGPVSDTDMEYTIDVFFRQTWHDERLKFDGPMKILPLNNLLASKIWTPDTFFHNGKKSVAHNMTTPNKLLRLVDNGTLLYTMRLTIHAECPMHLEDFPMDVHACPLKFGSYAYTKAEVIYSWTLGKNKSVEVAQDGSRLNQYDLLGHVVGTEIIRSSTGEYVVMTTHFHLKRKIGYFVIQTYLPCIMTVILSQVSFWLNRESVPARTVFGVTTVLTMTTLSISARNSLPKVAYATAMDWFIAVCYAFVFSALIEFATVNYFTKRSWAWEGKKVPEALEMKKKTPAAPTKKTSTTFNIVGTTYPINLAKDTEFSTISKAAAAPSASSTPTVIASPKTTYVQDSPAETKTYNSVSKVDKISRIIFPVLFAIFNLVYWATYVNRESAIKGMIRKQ
Sequence (P63138 whole entry): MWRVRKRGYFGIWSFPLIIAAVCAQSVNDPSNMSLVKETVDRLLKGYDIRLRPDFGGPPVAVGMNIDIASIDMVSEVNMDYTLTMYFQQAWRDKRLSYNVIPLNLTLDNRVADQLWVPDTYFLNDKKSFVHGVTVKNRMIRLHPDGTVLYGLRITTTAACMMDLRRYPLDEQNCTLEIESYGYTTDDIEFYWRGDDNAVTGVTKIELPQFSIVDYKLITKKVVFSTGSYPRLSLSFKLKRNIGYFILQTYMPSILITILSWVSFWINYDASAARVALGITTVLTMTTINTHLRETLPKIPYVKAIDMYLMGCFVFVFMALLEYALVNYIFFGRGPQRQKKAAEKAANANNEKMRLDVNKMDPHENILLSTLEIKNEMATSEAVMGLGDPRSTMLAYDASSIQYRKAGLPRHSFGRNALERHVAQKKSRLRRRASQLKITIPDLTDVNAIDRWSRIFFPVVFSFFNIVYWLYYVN
assay.method.text: Displacement of [3H]Ro-151788 from rat GABA-A receptor alpha-3-beta-2-gamma-2 subunits expressed in HEK293 cells
Assign pKi to each entry below.
Value format note: pKi is -log10 of concentration (mol/L); just state the number.

Ask | What does the data say about its pKi? Entry: [O-][n+]1nc2c(-c3ccsc3)cnn2c2cc(Cl)ccc21
Reply | 7.48

Ask | What does the data say about its pKi? Entry: O=C(OCc1cccs1)c1cnn2c1n[n+]([O-])c1ccc(Cl)cc12
Reply | 7.92

* * *

assay.method.text: Anticonvulsant activity electroshock induced convulsions and % lethality obtained at dose of 10 mg/kg
experimental.setup: mouse, in vivo
experimental.readout: mortality (%)
Note: unit % is implicit; provide only the numeric part.

Ask | What does the data say about its mortality? Entry: CN1C(=O)CN=C(c2ccccc2)c2cc(Cl)ccc21 [DIAZEPAM]
Reply | 0
